biological target: Phosphatidylinositol 4,5-bisphosphate 3-kinase catalytic subunit alpha isoform (Homo sapiens, UniProt P42336); assay: Inhibition of PI3Kalpha (unknown origin) using PIP2 as substrate measured after 40 mins by ADP-glo plus luminescence assay
Sequence (P42336 whole entry, canonical isoform): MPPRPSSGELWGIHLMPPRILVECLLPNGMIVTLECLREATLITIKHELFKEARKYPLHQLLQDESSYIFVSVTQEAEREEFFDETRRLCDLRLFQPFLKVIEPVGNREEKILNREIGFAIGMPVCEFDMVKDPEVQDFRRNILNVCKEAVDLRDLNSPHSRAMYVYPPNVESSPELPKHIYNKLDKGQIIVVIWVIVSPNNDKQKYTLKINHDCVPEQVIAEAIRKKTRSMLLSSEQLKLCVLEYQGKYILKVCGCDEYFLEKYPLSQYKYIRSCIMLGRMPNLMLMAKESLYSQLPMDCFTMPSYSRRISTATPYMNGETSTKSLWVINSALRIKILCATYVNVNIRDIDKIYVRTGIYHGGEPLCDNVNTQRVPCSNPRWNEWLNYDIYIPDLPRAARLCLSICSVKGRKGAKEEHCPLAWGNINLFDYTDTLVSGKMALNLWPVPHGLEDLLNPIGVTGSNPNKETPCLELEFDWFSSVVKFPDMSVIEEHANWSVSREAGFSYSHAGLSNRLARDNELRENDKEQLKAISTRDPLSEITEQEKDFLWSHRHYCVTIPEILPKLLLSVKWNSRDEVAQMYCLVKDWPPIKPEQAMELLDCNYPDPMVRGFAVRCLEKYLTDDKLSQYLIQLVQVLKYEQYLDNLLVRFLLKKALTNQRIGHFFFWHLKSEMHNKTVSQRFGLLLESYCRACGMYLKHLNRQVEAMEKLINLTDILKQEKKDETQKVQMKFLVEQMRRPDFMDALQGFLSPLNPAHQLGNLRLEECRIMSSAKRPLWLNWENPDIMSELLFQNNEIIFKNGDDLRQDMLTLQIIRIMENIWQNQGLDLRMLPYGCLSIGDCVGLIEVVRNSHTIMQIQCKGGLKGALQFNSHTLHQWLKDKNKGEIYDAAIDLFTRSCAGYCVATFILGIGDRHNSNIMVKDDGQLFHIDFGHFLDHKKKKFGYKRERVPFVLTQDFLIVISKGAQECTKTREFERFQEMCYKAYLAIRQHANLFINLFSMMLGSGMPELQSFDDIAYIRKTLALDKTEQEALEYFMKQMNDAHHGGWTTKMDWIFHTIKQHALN
The threshold is 2 nM. Values of IC50 beneath it are tagged yes (1); values meeting or exceeding it are tagged no (0).

[
  {
    "Mol Smiles": "Cc1c(CN2CCN(C(=O)c3cc4cccc(C(N)=O)c4o3)CC2)sc2c(N3CCOCC3)nc(-c3ccc(N)nc3)nc12",
    "Group": "no (0)"
  },
  {
    "Mol Smiles": "Cc1c(CN2CCN(C(=O)c3cc4cccc(C(N)=O)c4o3)CC2)sc2c(N3CCOCC3)nc(-c3ccc4cn[nH]c4c3)nc12",
    "Group": "no (0)"
  },
  {
    "Mol Smiles": "Cc1c(CN2CCN(C(=O)c3cc4cccc(C(N)=O)c4o3)CC2)sc2c(N3CCOCC3)nc(-c3cccc4[nH]ncc34)nc12",
    "Group": "no (0)"
  },
  {
    "Mol Smiles": "Cc1c(CN2CCN(C(=O)c3cc4cccc(C(N)=O)c4o3)CC2)sc2c(N3CCOCC3)nc(-c3cnc(N)cc3C(F)(F)F)nc12",
    "Group": "no (0)"
  },
  {
    "Mol Smiles": "Cc1c(CN2CCN(C(=O)c3cc4cccc(C(N)=O)c4o3)CC2)sc2c(N3CCOCC3)nc(-c3cnc(N)nc3)nc12",
    "Group": "yes (1)"
  },
  {
    "Mol Smiles": "Cc1c(CN2CCN(C(=O)c3cc(Cc4n[nH]c(=O)c5ccccc45)ccc3F)CC2)sc2c(N3CCOCC3)nc(-c3cnc(N)cc3C(F)(F)F)nc12",
    "Group": "no (0)"
  }
]

* * *

test system: HCT-116; experiment: Antiproliferative activity against human BRCA-2 deficient HCT-116 cells assessed as reduction in cell growth incubated for 7 days by cell titer-glo assay; assay type: functional, cell-based; settings: HCT-116, 168 h
pIC50: −log10 of the molar value.

[
  {
    "Compound": "Cc1c(CN2CCN(C(=O)c3cc4cccc(C(N)=O)c4o3)CC2)sc2c(N3CCOCC3)nc(-c3cnc(N)cc3C(F)(F)F)nc12",
    "Inequality Symbol": "=",
    "pIC50": 6.16
  },
  {
    "Compound": "Cc1c(CN2CCN(C(=O)c3cc4cccc(C(N)=O)c4o3)CC2)sc2c(N3CCOCC3)nc(-c3ccc(N)cc3)nc12",
    "Inequality Symbol": "=",
    "pIC50": 5.40
  },
  {
    "Compound": "Cc1c(CN2CCN(C(=O)c3cc4cccc(C(N)=O)c4o3)CC2)sc2c(N3CCOCC3)nc(-c3ccc(F)c(N)c3)nc12",
    "Inequality Symbol": "=",
    "pIC50": 5.23
  },
  {
    "Compound": "Cc1c(CN2CCN(C(=O)[C@H](C)O)CC2)sc2c(N3CCOCC3)nc(-c3cnc(N)nc3)nc12 [APITOLISIB]",
    "Inequality Symbol": "=",
    "pIC50": 5.95
  },
  {
    "Compound": "Cc1c(CN2CCN(C(=O)c3cc4cccc(C(N)=O)c4o3)CC2)sc2c(N3CCOCC3)nc(-c3cccc4[nH]ncc34)nc12",
    "Inequality Symbol": "=",
    "pIC50": 6.05
  },
  {
    "Compound": "Cc1c(CN2CCN(C(=O)c3cc(Cc4n[nH]c(=O)c5ccccc45)ccc3F)CC2)sc2c(N3CCOCC3)nc(-c3cnc(N)nc3)nc12",
    "Inequality Symbol": "=",
    "pIC50": 6.51
  },
  {
    "Compound": "O=C(c1cc(Cc2n[nH]c(=O)c3ccccc23)ccc1F)N1CCN(C(=O)C2CC2)CC1 [OLAPARIB]",
    "Inequality Symbol": "<",
    "pIC50": 5.00
  },
  {
    "Compound": "Cc1c(CN2CCN(C(=O)c3cc4cccc(C(N)=O)c4o3)CC2)sc2c(N3CCOCC3)nc(-c3ccc4cn[nH]c4c3)nc12",
    "Inequality Symbol": "=",
    "pIC50": 5.29
  },
  {
    "Compound": "Cc1c(CN2CCN(C(=O)c3cc4cccc(C(N)=O)c4o3)CC2)sc2c(N3CCOCC3)nc(-c3cnc(N)nc3)nc12",
    "Inequality Symbol": "=",
    "pIC50": 6.55
  },
  {
    "Compound": "Cc1c(CN2CCN(C(=O)c3cc4cccc(C(N)=O)c4o3)CC2)sc2c(N3CCOCC3)nc(-c3ccc(N)c(F)c3)nc12",
    "Inequality Symbol": "=",
    "pIC50": 5.63
  },
  {
    "Compound": "Cc1c(CN2CCN(C(=O)c3cc(Cc4n[nH]c(=O)c5ccccc45)ccc3F)CC2)sc2c(N3CCOCC3)nc(-c3cnc(N)cc3C(F)(F)F)nc12",
    "Inequality Symbol": "=",
    "pIC50": 6.16
  }
]
